Experiment: melting temperature; fluorescence melt of hairpins on a sequencing array, two-state fit, raised by 9.35 °C to match UV melts
Conditions: sodium 0.088 M
MEASURED_PARAMETER: Tm (°C)
Quick reminder: number only, in °C, skip the unit.

{"ENTRY_SEQUENCE": "GGAATGGCGAAAGCCTCC (((..(((....))))))", "UOM": "°C", "Tm": 36.7}

Request: So what's the measured Tm for this one? GGAGGGACGAAAGTCTCC (((..(((....))))))
Result: 39.2

Request: Now the sequence GCTGACGAAAGTCGGAGC ((((((....)))..)))
Result: 45.7

Request: Now the sequence GGTTTCGAAAGAATCACC ((((((....)))..)))
Result: 26.7

Request: Now the sequence GCAGCAGGAAACCGCTGC (((((.(....).)))))
Result: 58.1

Request: Now the sequence GTCCTCGGAAACGAAGAC (((.(((....))).)))
Result: 38

Request: Now the sequence GTATTAGGAAACTAATAC (((((((....)))))))
Result: 46.3

Request: Now the sequence GTGTTATCGAAAGATCAC (((..(((....))))))
Result: 33.8

Request: Now the sequence GGTGCCCCGAAAGGGACC (((..(((....))))))
Result: 47.9

Request: Now the sequence GCCAAAGGAAACTTCGGC (((.(((....))).)))
Result: 39.6

Request: Now the sequence GATCAACACTTTGATC ((((((....))))))
Result: 47.6

Request: Now the sequence GGTTGCGAAAGCAGGACC ((((((....)))..)))
Result: 37.8

Request: Now the sequence GTGTATGAAAATACAC ((((((....))))))
Result: 52.5

Request: Now the sequence GGCAACGGAAACACTGCC ((((..(....)..))))
Result: 29.7

Request: Now the sequence GACATGCGAAAGCAAGTC (((.(((....))).)))
Result: 53.3

----------
Assay: melting temperature; fluorescence melt of hairpins on a sequencing array, two-state fit, raised by 9.35 °C to match UV melts
Conditions: sodium 0.088 M
Known Tm of a selection of sequences
Quick reminder: number only, in °C, skip the unit.

{"ENTRY_SEQUENCE": "GTGGGACGAAAGTCGCAC (((.(((....))).)))", "MEASURED": 66.3}

Request: So what's the measured Tm for this one? GATCTCCTCGGAGATC ((((((....))))))
Result: 58

Request: Now the sequence CGGATCGGAAACGAACCG (((.(((....))).)))
Result: 52

Request: Now the sequence GAGAAAGCGAAAGCTCTC (((..(((....))))))
Result: 40.2

Request: Now the sequence GTCGACGAAAGTCTTGAC ((((((....)))..)))
Result: 36.2

Request: Now the sequence GTAGTGGCGAAAGCCTAC (((..(((....))))))
Result: 35.4

Request: Now the sequence GATCAAGTCCTTGATC ((((((....))))))
Result: 49.7

Request: Now the sequence GATCAACGAAAGTTAATC (((.(((....))).)))
Result: 27.8

Request: Now the sequence GATTTAGGAAACTGAATC ((((.((....)).))))
Result: 33.1

Request: Now the sequence GCGAAGGGAAACCCTCGC ((((.((....)).))))
Result: 53.4

Request: Now the sequence GGCTCAGGAAACCAAGCC ((((..(....)..))))
Result: 35.3

Request: Now the sequence GCCCTGCGAAAGCATGGC (((.(((....))).)))
Result: 56.3

----------
Assay: melting temperature; fluorescence melt of hairpins on a sequencing array, two-state fit, raised by 9.35 °C to match UV melts
Details: sodium 0.088 M
Known Tm of a selection of sequences
Quick reminder: number only, in °C, skip the unit.

Worked set:
{"ENTRY_SEQUENCE": "AGCCTGAAAAGGCT (((((....)))))", "Tm, °C": 66.1}
{"ENTRY_SEQUENCE": "GATCTCTACGAGATC ((((((...))))))", "Tm, °C": 55.1}
{"ENTRY_SEQUENCE": "GCTATCGAAAGATGAGC ((((((....))).)))", "Tm, °C": 37.4}
{"ENTRY_SEQUENCE": "GCTCTGCGAAAGCTGCGC ((.(.((....)).).))", "Tm, °C": 44.2}
{"ENTRY_SEQUENCE": "CGCTCGGAAACGAAGCG ((((((....))).)))", "Tm, °C": 53.6}
{"ENTRY_SEQUENCE": "GCAAAGCGAAAGCGCTGC (((..((....))..)))", "Tm, °C": 57.4}
{"ENTRY_SEQUENCE": "GATGTAGGAAACTATATC (((.(((....))).)))", "Tm, °C": 33.1}
{"ENTRY_SEQUENCE": "GATCCGCCTACGGATC ((((((....))))))", "Tm, °C": 59.6}

Request: So what's the measured Tm for this one? GAAAGCGAAAGCTCGTTC ((((((....)))..)))
Result: 25.9

Request: Now the sequence GTGTTAGGAAACTAATAC ((.((((....)))).))
Result: 37.2

Request: Now the sequence GTGGTGGGAAACCGCCAC ((((.((....)).))))
Result: 61.9

Request: Now the sequence GATCTCCGACGAGATC ((((((....))))))
Result: 50

----------
Test: melting temperature; fluorescence melt of hairpins on a sequencing array, two-state fit, raised by 9.35 °C to match UV melts
Details: sodium 0.088 M
Answer not satisfied if Tm is under 40 °C, and satisfied if it is 40 °C or more.

Use the examples below as a reference point.
{"ENTRY_SEQUENCE": "GTACGAGGAAACTTGTGC (.((.((....)).)).)", "ASSIGNED_LABEL": "not satisfied"}
{"ENTRY_SEQUENCE": "GCTCCAGCGAAAGCTAGC (((..(((....))))))", "ASSIGNED_LABEL": "not satisfied"}
{"ENTRY_SEQUENCE": "GCAACTCGAAAGAGCTGC (((.(((....))).)))", "ASSIGNED_LABEL": "satisfied"}
{"ENTRY_SEQUENCE": "GGCCCTGGAAACGGGGTC (.(((.(....).))).)", "ASSIGNED_LABEL": "satisfied"}
{"ENTRY_SEQUENCE": "GCGTCAGGAAACTGACAC (.(((((....))))).)", "ASSIGNED_LABEL": "satisfied"}

Now, please, on to the next sequence.
Request: Does the reported Tm for GTAGCGGGAAACCGCCAC ((.((((....)))).)) fall at or above the 40 °C mark?
Result: not satisfied

----------
Assay: folding enthalpy; higher = less favourable; fluorescence melt of hairpins on a sequencing array, two-state fit
Details: sodium 0.088 M
Answer not fulfilled if folding enthalpy is under -30 kcal/mol, and fulfilled if it is -30 kcal/mol or more.

{"ENTRY_SEQUENCE": "GATCACTTTCGTGATC ((((((....))))))", "ASSIGNED_LABEL": "not fulfilled"}

Request: Does the reported folding enthalpy for GCGTACGGAAACGCACAC (.((.((....)).)).) fall at or above the -30 kcal/mol mark?
Result: fulfilled

Request: Now the sequence CGTGGCGGAAACGCACG (((.(((....))))))
Result: fulfilled

Request: Now the sequence GTATTCGAAAGAATATAC ((((((....)))..)))
Result: fulfilled

Request: Now the sequence GCAAGGCGAAAGCCCTGC (((.(((....))).)))
Result: not fulfilled

----------
Known Tm of a selection of sequences
Assay: melting temperature; fluorescence melt of hairpins on a sequencing array, two-state fit, raised by 9.35 °C to match UV melts
Conditions: sodium 0.088 M
Quick reminder: number only, in °C, skip the unit.

Worked set:
{"ENTRY_SEQUENCE": "GGGAACCGAAAGGTCCCC (((.(((....))).)))", "MEASURED_PARAMETER": "Tm", "MEASURED": 58.1}
{"ENTRY_SEQUENCE": "GTCACATCGAAAGATGAC (((..(((....))))))", "MEASURED_PARAMETER": "Tm", "MEASURED": 30.2}
{"ENTRY_SEQUENCE": "GTCTTCGGAAACGAAGGC (.(((((....))))).)", "MEASURED_PARAMETER": "Tm", "MEASURED": 53.8}

Request: So what's the measured Tm for this one? GATTCAGGAAACTGAACC (.(((((....))))).)
Result: 31.4

Request: Now the sequence GTTAGCCGAAAGGCAAC (((.(((....))))))
Result: 49.3

Request: Now the sequence CGGCCGGAAACGGTCCG ((((((....))).)))
Result: 57.7
